All figures here come from patent US20090136506A1.

Tested on: IL-2
ASSAY_EXPLANATION: IL-2 production of TCR/CD28 activated Jurkat T-cells after viral shDNA transduction
Type: cell-based
CONDITION_DESCRIPTION: pLKO.1 shDNA, puromycin selected, TCR/CD28 activated 6 days post transduction, IL-2 normalized to viable cells

| MOLECULE | Average IL-2 % inhibition [%] |
| --- | --- |
| cMAC BL9: shDNA construct in pLKO.1 lentiviral vector, target sequence caggaatgtcctccaacca (SEQ ID NO: 126) (nucleic acid) sense: CCGGCAGGAATGTCCTCCAACCATTCAAGAGATGGTTGGAGGACATTCCTGTTTTT antisense: AATTAAAAACAGGAATGTCCTCCAACCATCTCTTGAATGGTTGGAGGACATTCCTG | 37.8 |
| cMAC BL6: shDNA construct in pLKO.1 lentiviral vector, target sequence actagaatgttgacctcga (SEQ ID NO: 117) (nucleic acid) sense: CCGGACTAGAATGTTGACCTCGATTCAAGAGATCGAGGTCAACATTCTAGTTTTTT antisense: AATTAAAAAACTAGAATGTTGACCTCGATCTCTTGAATCGAGGTCAACATTCTAGT | −9.34 |
| cMAC BL3: shDNA construct in pLKO.1 lentiviral vector, target sequence catctttgttggcctacga (SEQ ID NO: 108) (nucleic acid) sense: CCGGCATCTTTGTTGGCCTACGATTCAAGAGATCGTAGGCCAACAAAGATGTTTTT antisense: AATTAAAAACATCTTTGTTGGCCTACGATCTCTTGAATCGTAGGCCAACAAAGATG | 52.1 |
| cMAC BL4: shDNA construct in pLKO.1 lentiviral vector, target sequence ggttatctgttgcccaaga (SEQ ID NO: 111) (nucleic acid) sense: CCGGGGTTATCTGTTGCCCAAGATTCAAGAGATCTTGGGCAACAGATAACCTTTTT antisense: AATTAAAAAGGTTATCTGTTGCCCAAGATCTCTTGAATCTTGGGCAACAGATAACC | 65.7 |
